experiment: Dog PK study #1 (Compound A IV and PO, propylene glycol formulation); format: in vivo, beagle dogs; conditions: beagle, dog, plasma, po, 5 mg/kg, oral 5 mg/kg, 0.5 h; mean; read-out: Average plasma concentration
endpoint-name: concentration at 0.5 h
A complete answer gives the number and then names the unit.

Endpoint output: concentration at 0.5 h of Cn1cc(-c2ccccc2)c(-c2cn(C)c(=O)c3[nH]c(-c4cnn(C(F)(F)F)c4)cc23)cc1=O . Value?
0.127 µg/mL

###

assay: Dog PK study #3 (Compound A PO once daily 5 days, 5/10/20 mg/kg; PK, body weight, hematology); assay type: in vivo, beagle dogs; conditions: male, beagle, dog, plasma, po, 10 mg/kg, Day 1, 10 mg/kg dose PO; individual animals
endpoint-name: Tmax
Report the figure along with its unit, number first.

Record request: Tmax value, item Cn1cc(-c2ccccc2)c(-c2cn(C)c(=O)c3[nH]c(-c4cnn(C(F)(F)F)c4)cc23)cc1=O [Compound A]
4 h

###

assay: Dog PK study #1 (Compound A IV and PO, propylene glycol formulation); type: in vivo, beagle dogs; settings: beagle, dog, plasma, po, 5 mg/kg, oral 5 mg/kg; mean
endpoint-name: AUC (ng·h/mL)
Report the figure in ng·h/mL without appending any unit label.

Fill in: AUC of Cn1cc(-c2ccccc2)c(-c2cn(C)c(=O)c3[nH]c(-c4cnn(C(F)(F)F)c4)cc23)cc1=O [Compound A] is ___
4270

###

assay: Rat PK study #3 (ABBV-744 IV 1 mg/kg and PO 5 mg/kg); assay type: in vivo, SD rats; details: male, Sprague-Dawley, rat, plasma, iv, 1 mg/kg, SD rats, IV 1 mg/kg, DMSO/PEG-400/Milli-Q water formulation, 0.033 h, individual animals
endpoint-name: concentration at 0.033 h (ng/mL)
Number only, in ng/mL; omit the unit.

// query concentration at 0.033 h value for entry CCNC(=O)c1cc2c(-c3cc(C(C)(C)O)ccc3Oc3c(C)cc(F)cc3C)cn(C)c(=O)c2[nH]1
475

###

test: Dog PK study #4 (Compound A PO daily 14 days, 1/3/10 mg/kg; toxicokinetics, platelet counts); type: in vivo, beagle dogs; details: beagle, dog, plasma, oral; after daily administration for 14 days, 3 mg/kg, Male, 0.5 h
endpoint-name: concentration at 0.5 h (µg/mL)
Numeric only. Scale: µg/mL

Please look up its concentration at 0.5 h: Cn1cc(-c2ccccc2)c(-c2cn(C)c(=O)c3[nH]c(-c4cnn(C(F)(F)F)c4)cc23)cc1=O [Compound A]
0.0983

###

assay: Rat PK study #3 (ABBV-744 IV 1 mg/kg and PO 5 mg/kg); type: in vivo, SD rats; conditions: male, Sprague-Dawley, rat, plasma, iv, 1 mg/kg, SD rats, IV 1 mg/kg, DMSO/PEG-400/Milli-Q water formulation, 4 h, individual animals
endpoint-name: concentration at 4 h (ng/mL)
Give just the numeric value; ng/mL need not be written.

# concentration at 4 h lookup, item CCNC(=O)c1cc2c(-c3cc(C(C)(C)O)ccc3Oc3c(C)cc(F)cc3C)cn(C)c(=O)c2[nH]1
48

###

test: Rat PK study #1 (Compound A PO, methylcellulose vs propylene glycol formulation); type: in vivo, Lewis rats; settings: male, Lewis, rat, plasma, po, 10 mg/kg, Lewis rats, PO 10 mg/kg, 1% methylcellulose formulation, 4 h, mean of 3 animals
endpoint-name: concentration at 4 h (ng/mL)
The reply should contain only the number, in ng/mL.

Which concentration at 4 h is listed for Cn1cc(-c2ccccc2)c(-c2cn(C)c(=O)c3[nH]c(-c4cnn(C(F)(F)F)c4)cc23)cc1=O ?
44.6

Data provenance is patent US20260217701A1.
